Cited source for all entries: patent US11773113B2

Experiment: Study of moisture absorption, dynamic vapor sorption (DVS) test
Format: physicochemical
Settings: DVS, 25° C., 80% relative humidity
Measured Parameter: Weight increase of 80% relative humidity (%)

Past entries and their recorded results:
N#Cc1ccc(Oc2ccc3c(c2)COB3O)cc1 [Crystal form I] : 0.14
N#Cc1ccc(Oc2ccc3c(c2)COB3O)cc1 [Crystal form IV] : 1.53

[A] N#Cc1ccc(Oc2ccc3c(c2)COB3O)cc1 [Crystal form III]
[B] N#Cc1ccc(Oc2ccc3c(c2)COB3O)cc1 [Crystal form II]
[ask] Which value of Weight increase of 80% relative humidity is greater, the one for A or the one for B ? Bench note: the answer is the label of the chosen record.
[reply] B

---

Assay: Study of dynamic solubility (saturated solution, HPLC)
Assay type: physicochemical
Conditions: SGF (pH = 1.8), 1 h
Measured Parameter: Solubility (µg/mL)

N#Cc1ccc(Oc2ccc3c(c2)COB3O)cc1 [Crystal form I] : 11
N#Cc1ccc(Oc2ccc3c(c2)COB3O)cc1 [Crystal form IV] : 31

[P] N#Cc1ccc(Oc2ccc3c(c2)COB3O)cc1 [Crystal form II]
[Q] N#Cc1ccc(Oc2ccc3c(c2)COB3O)cc1 [Crystal form III]
[ask] Could you point out whether the larger Solubility belongs to P or to Q ? Could you answer with the label of the item you picked?
[reply] Q

---

Test: Study of particle size distribution (PSD, laser particle size analytic meter)
Format: physicochemical
Details: volume distribution, dispersion medium Isopar G
Measured Parameter: D50 (median size) (μm)

[I] N#Cc1ccc(Oc2ccc3c(c2)COB3O)cc1 [Crystal form II]
[II] N#Cc1ccc(Oc2ccc3c(c2)COB3O)cc1 [Crystal form I]
[III] N#Cc1ccc(Oc2ccc3c(c2)COB3O)cc1 [Crystal form III]
[IV] N#Cc1ccc(Oc2ccc3c(c2)COB3O)cc1 [Crystal form IV]
[ask] List the items above again, this time ordered by increasing D50 (median size). Show the ranking through the labels, in the order asked for.
[reply] II, I, IV, III

---

Experiment: Study of moisture absorption, dynamic vapor sorption (DVS) test
Assay type: physicochemical
Conditions: DVS, 25° C., 95% relative humidity
Measured Parameter: Weight increase of 95% relative humidity (%)

// below: answered compounds
N#Cc1ccc(Oc2ccc3c(c2)COB3O)cc1 [Crystal form I] : 0.32
N#Cc1ccc(Oc2ccc3c(c2)COB3O)cc1 [Crystal form II] : 0.32

[P] N#Cc1ccc(Oc2ccc3c(c2)COB3O)cc1 [Crystal form III]
[Q] N#Cc1ccc(Oc2ccc3c(c2)COB3O)cc1 [Crystal form IV]
[ask] Just tell me: smaller Weight increase of 95% relative humidity value, P or Q ? Provide the label of your selected option as the answer.
[reply] P
(P: 0.15%, Q: 4.90%)

---

Experiment: Study of dynamic solubility (saturated solution, HPLC)
Type: physicochemical
Details: H2O, 4 h
Measured Parameter: Solubility (µg/mL)

As a guide, the following entries are already answered.
N#Cc1ccc(Oc2ccc3c(c2)COB3O)cc1 [Crystal form II] : 1
N#Cc1ccc(Oc2ccc3c(c2)COB3O)cc1 [Crystal form I] : 5

[I] N#Cc1ccc(Oc2ccc3c(c2)COB3O)cc1 [Crystal form III]
[II] N#Cc1ccc(Oc2ccc3c(c2)COB3O)cc1 [Crystal form IV]
[ask] I'm curious whether I or II has the smaller Solubility number. Which is it? Record your answer as the label of the chosen record.
[reply] I
(I: 4 µg/mL, II: 6 µg/mL)
